What Kd was measured for each of the following?
Target: T1, C-terminally His-tagged hEphA2-FN2 (Thr437-Asn534+His tag) (human, UniProt P29317 437-534)
T1 construct: also called FN2 domain of hEphA2
T1 sequence (P29317 437-534 limits assumed): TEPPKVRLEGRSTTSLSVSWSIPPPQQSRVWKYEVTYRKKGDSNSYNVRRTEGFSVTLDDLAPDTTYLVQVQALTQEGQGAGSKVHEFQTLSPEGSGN
Assay: SPR Biacore T200, 25 C; mIgG2a captured by anti-mouse Fc, hEphA2-FN2-His analyte; steady-state monovalent KD
Your reply should be a number followed by the unit it is expressed in.

In: Query Kd for AB-010361 (mouse IgG2a format) (antibody, V domains shown, tested in mIgG2a format) VH: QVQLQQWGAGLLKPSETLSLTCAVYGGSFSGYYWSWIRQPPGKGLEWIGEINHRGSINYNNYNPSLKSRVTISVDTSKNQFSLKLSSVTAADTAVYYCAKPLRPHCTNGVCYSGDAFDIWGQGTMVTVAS VL: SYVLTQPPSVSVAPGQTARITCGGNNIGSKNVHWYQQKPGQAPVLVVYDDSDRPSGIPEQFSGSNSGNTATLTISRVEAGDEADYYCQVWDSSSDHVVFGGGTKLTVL
Out: 1110 nM

In: Query Kd for AB-010699 (mouse IgG2a format) (antibody, V domains shown, tested in mIgG2a format) VH: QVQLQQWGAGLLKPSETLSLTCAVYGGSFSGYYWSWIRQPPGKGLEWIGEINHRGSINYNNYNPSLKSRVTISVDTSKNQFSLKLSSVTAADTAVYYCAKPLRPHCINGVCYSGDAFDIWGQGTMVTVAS VL: SYVLTQPPSVSVAPGQTARITCGGNNIGYKNVHWYQQKPGQAPVLVVYDDSDRPSGIPERFSGSNSGNTATLTISRVEAGDEADYYCQVWDHSSDHVVFGGGTKLTVL
Out: 18.9 nM

In: Query Kd for AB-010363 (mouse IgG2a format) (antibody, V domains shown, tested in mIgG2a format) VH: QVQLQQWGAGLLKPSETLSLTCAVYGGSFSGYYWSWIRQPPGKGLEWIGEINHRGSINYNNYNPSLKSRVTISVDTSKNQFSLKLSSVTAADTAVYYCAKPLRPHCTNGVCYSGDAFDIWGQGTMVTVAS VL: SYVLTQPPSVSVAPGQTARITCGGNNIGSKNVHWYQQKPGQAPVLVVYDDSDRPSGIPERFSGSNSGNTATLTISRVEAGDEADYYCQVWDSSSDHVVFGGGTKLTVL
Out: 1310 nM

In: Query Kd for AB-008873 (mouse IgG2a format) (antibody, V domains shown) VH: QVQLQQWGAGLLKPSETLSLTCAVYGGSFSDYYWSWIRQPPGKGLEWIGEVNHRGSINYNNYNPSLKSRVTISVDPSKNQFSLKLTSVTAADTAVYYCAKPLRPHCTNGVCYSGDAFDIWGQGTMVTVAS VL: SYVLTQPPSVSVAPGQTARITCGGNNIGSKNVHWYQQKPGQAPVLVVYDDSDRPSGIPEQFSGSNSGNTATLTISRVEAGDEADYYCQVWDSSSDHLVFGGGTKLTVLG
Out: 2260 nM
